- System: IGROV-1
- EXPERIMENTAL_PROTOCOL: NCI tumour cell line growth inhibition, 48 h
Activity calls are given as the source filed them. Cut-off read from the data, not from the text of the source: active = GI50 up to about 1.1 µM and inactive = higher.
Possible outcomes: active, inactive

COMPOUND	ANSWER_LABEL
O=C(CCC1CCCCN1)Nc1ccc2c(c1)C(=O)c1ccc(NC(=O)CCN3CCCCC3)cc1C2=O (stereo not drawn)	inactive
O=C1CCCc2ccc([N+](=O)[O-])c(O)c21	inactive
N#Cc1cn(-c2c3ccccc3nc3ccccc23)c(=O)[nH]c1=O	inactive
CC(C)(C)OC(=O)[N+](=N)C(=O)C1CCC(=O)N1C(=O)OCc1ccccc1 (stereo not drawn)	inactive
Cc1cc2c(=O)cc(-c3cccs3)oc2c(C(=O)O)c1C	inactive
Nc1ncnc2c1nc(Cl)n2C1OC(CO)C(O)C1O (stereo not drawn)	active
Cc1cccc(Nc2nc(NNC(=O)Cc3ccccc3)nc(NNC(=O)c3ccncc3)n2)c1	inactive
COc1cc(NC(C)c2ccc3c(c2)OCCO3)cc(OC)c1OC (stereo not drawn)	inactive
Cc1c(Cl)c(=O)oc2cc(OCC(O)COC(C)C)ccc12 (stereo not drawn)	inactive
COC(=O)C1=COC2OC3/C(=C\c4ccc(O)c(OC)c4)C(=O)OC34C=CC1C24 (stereo not drawn)	inactive
CC1(Sc2ccccc2)CN(Cc2ccccc2)C1=O (stereo not drawn)	inactive
CCc1ccc2c(c1)/C(=C1/Nc3ccccc3C1=O)C(=O)N2	active
O=P1(N2CCOCC2)OCCO1	inactive
CC1(C)C(=NN=C(N)N)C(C)(C)C1=NN=C(N)N	inactive
O=C1c2nc3n(c2C(=O)c2c1nc1n2CCC1)CCC3	inactive
COC(=O)C(=C/c1ccc(OC)cc1)/C(C(=O)O)=C(/C)c1ccccc1	inactive
CC1=C(C(=O)NCc2ccccc2)C(/C=C/c2ccccc2)C(C(=O)NCc2ccccc2)=C(C)N1	inactive
CC(C)COP(=O)(OCC(C)C)C(NS(=O)(=O)c1ccccc1)(C(F)(F)F)C(F)(F)F	inactive
CC1(C)CC(=O)C/C(=N/c2ccc([N+](=O)[O-])cc2)C1	inactive
CCCCCCCCCCCCCCC(O)C[N+](C)(CCO)CCO (stereo not drawn)	inactive
COc1cccc(/C=C2\CCCc3ccccc3C2=O)c1	inactive
O=C(O)c1ccc(-c2nc3cc(Cl)ccc3[nH]2)cc1	inactive
COc1ccc2c(c1)C1=NCCN(C)c3ccc([N+](=O)[O-])c(c31)N2	inactive
COc1ccc(C2=C(Cl)C(=O)O/C2=C\c2ccc(OC)c(Br)c2)cc1Cl	inactive
Cc1[nH]c2ccccc2c1/C=N/c1ccc(Oc2ccccc2)cc1	inactive
CCNc1ccc2c(c1)Cc1ccccc1-2	inactive
COCOc1ccc(C(=O)C(C)c2ccc(OCOC)cc2OCOC)c(O)c1 (stereo not drawn)	inactive
O=[N+]([O-])/C(Cl)=C/C(=C1/Nc2ccccc2O1)[N+](=O)[O-]	inactive
C=C(C(=O)OC)c1cc2ccccc2n1S(=O)(=O)c1ccccc1	inactive
CC1=C/C(=N\N(C)C)C(C(O)(C(F)(F)F)C(F)(F)F)C(C)(C)C1 (stereo not drawn)	inactive
O=C1C=CC(O)C2C1CC13SSC4(CC5C(=O)C=CC(O)C5N4C1=O)C(=O)N23 (stereo not drawn)	inactive
NCCCc1c(-c2ccccc2)[nH]c(N)nc1=O	inactive
CC(C)(C)C1=CC(=N/N=c2\scc(-c3ccccc3)n2-c2ccccc2)C=C(C(C)(C)C)C1=O	inactive
CCOC(=O)C1C(c2ccc(Cl)cc2Cl)NC(c2ccc(C)cc2)C(C(=O)OC)S1(=O)=O (stereo not drawn)	inactive
CC(NC(=O)c1ccc(Cl)c(Cl)c1)c1ccc(-c2ccccc2)cc1 (stereo not drawn)	inactive
C=C[C@@]1(C)CC[C@@H]2[C@@]3(C1)O[C@H]3CC1[C@](C)(C(=O)OC)CCC[C@@]12C (stereo partly drawn)	inactive
CC(C#N)Nc1ccc(Oc2ccc(C(C)(C)c3ccc(Oc4ccc(NC(C)C#N)cc4)cc3)cc2)cc1 (stereo not drawn)	inactive
COC(=O)C1CC(C(=O)OC)c2nc3cc([N+](=O)[O-])ccc3nc21 (stereo not drawn)	inactive
O=C(Cc1ccccc1)NN1C(=O)C(Cl)C1c1cccc([N+](=O)[O-])c1 (stereo not drawn)	inactive
O=C1c2c(Cl)c(Cl)c(Cl)c(Cl)c2C(=O)N1CCN(c1c(Cl)ssc1=O)c1c(Cl)ssc1=O	inactive
CC(=O)/C(=C\I)c1ccccc1	inactive
COC(=O)C1=CS/C(=C2\S[C@@H]3[C@H](S2)[C@H]2C=C[C@@H]3C2)S1	inactive
O=C1N[C@H]2C(=O)c3c(Cl)sc(Cl)c3[C@H]2O1	inactive
